- assaySystem: TbAQP2 Asp265Ala (Trypanosoma brucei brucei, UniProt Q6ZXT3, D265A)
- assayProtocol: cell-based
- testContext: pH 2.5; read-out: IC50, pentamidine inhibition of TbAQP2 Asp265Ala
valueKind: pIC50
Scale for pIC50: -log10 of concentration given in mol/L; no unit attached.

# pIC50 lookup, item `N=C(N)c1ccc(OCCCCCOc2ccc(C(=N)N)cc2)cc1`
5.24

----------
- assaySystem: TbAQP2 Asp265Ala (Trypanosoma brucei brucei, UniProt Q6ZXT3, D265A)
- assayProtocol: cell-based
- testContext: pH 7.2; read-out: IC50, pentamidine inhibition of TbAQP2 Asp265Ala
valueKind: pIC50
pIC50 is a log-scale quantity: -log10 of the concentration expressed in molar.

Dear colleague, I am looking for the recorded pIC50 of the following molecule: N=C(N)c1ccc(OCCCCCOc2ccc(C(=N)N)cc2)cc1 [pentamidine]
5.35
